# test-protocol: ATG_E_Box_CIS: Attagene CIS-FACTORIAL HepG2 Assay for human Enhancer Box (E-box) (AID 2282936)
# test-parameters: HepG2 E-box cis-reporter transcription, actives raise or lower the signal
Activity calls are given as the source filed them. How the source made its calls: active means hit-call score of the fitted dose curve at least 0.9, where 1 is the maximum; inactive means score below 0.9.
quantity-kind: outcome

[
  {
    "compound": "Cc1cc(Cc2ccc(N)c(C)c2)ccc1N",
    "measured-value": "inactive"
  },
  {
    "compound": "O=[Si]=O",
    "measured-value": "inactive"
  },
  {
    "compound": "CCCCC(CC)CO (stereo not drawn)",
    "measured-value": "inactive"
  }
]

* * *

# Read-out: Cyclin D1 (CCND1), CCND1 (gene 595)
# test-protocol: LTEA_HepaRG_CCND1: Life Technologies and Expression Analysis (LTEA) Assay for Cyclin D1 (CCND1) using HepaRG (AID 2283451)
# test-parameters: mRNA level, 48 h; actives raise or lower the signal
Calls of active or inactive are those of the source. How the source made its calls: active means hit-call score of the fitted dose curve at least 0.9, where 1 is the maximum; inactive means score below 0.9.
Bench note: report the call from active, inactive

Test call, this compound: "Cc1ccc(-c2cc(C(F)(F)F)nn2-c2ccc(S(N)(=O)=O)cc2)cc1"
inactive

"O=C(O)CN(CC(=O)O)CC(=O)O" ?
inactive

What would you report for "CC(N)=O" ?
inactive

// same read-out, input: "N[C@@H](Cc1c[nH]c2ccccc12)C(=O)O"
inactive

Try this compound too: "CCCCc1nc2cccnc2n1Cc1ccc(-c2ccccc2-c2nnn[nH]2)cc1"
inactive

What do you get for CCCCC(CC)COC(=O)CCCCCCCC(=O)OCC(CC)CCCC (stereo not given) ?
inactive

# iterate: "Oc1ccc(O)cc1"
inactive

Also "CC1(C)C(=O)NC(=O)N1CO" , if possible.
inactive

Next: "O=C(NS(=O)(=O)/C=C/c1cccs1)c1ccc(F)cc1Br"
inactive

Again, but for "Cn1cnc2c1c(=O)[nH]c(=O)n2C"
inactive

Then this compound: "O=C(O)CC(O)(CC(=O)O)C(=O)O"
inactive

Check "CN(C)C(=O)NC1(c2ccccc2)CCN(CC[C@@]2(c3ccc(F)c(F)c3)CN(C(=O)c3ccccc3)CCO2)CC1" too.
inactive

Ok, now "CC(=O)O"
inactive

Next record, please: "CC(C)c1cccc(C(C)C)c1NC(=O)NS(=O)(=O)c1cc(C(C)(C)O)co1"
inactive

Subsequent entry: "CCCCCCCCCCCCCCOS(=O)(=O)O"
inactive

Also need "CS(=O)(=O)c1ccc([C@@H](C[C@H]2CCC(=O)C2)C(=O)Nc2cnccn2)cc1Cl" , thanks.
active

Also check "O=C1c2c(O)cccc2Cc2cccc(O)c21"
inactive

Subsequent entry: "COC(=O)CCCC(=O)OC"
inactive

Same lookup for "O=C(N[C@@H](c1ccccc1)[C@@H]1CCCCN1)c1cccc(C(F)(F)F)c1Cl" , please.
active

CC(COCC(C)OC(=O)c1ccccc1)OC(=O)c1ccccc1 (stereo not given) ?
inactive

Here is the next compound: CCCCC(CC)COP(=O)(OCC(CC)CCCC)OCC(CC)CCCC (stereo not given)
inactive

Next compound: "COc1ccc(C(=O)Nc2nc3ccccc3c(NCc3ccccc3)c2C#N)cc1"
active

Another compound: "OCC(CO)n1cnc(-c2ccc(F)cc2)c1-c1ccnc(Oc2ccccc2)n1"
active

Okay, and "CC(=O)S[C@H](C(=O)N[C@H]1Cc2ccccc2[C@H]2CCC[C@@H](C(=O)O)N2C1=O)C(C)C" ?
inactive

Next record, please: "OCC(O)CO"
inactive
